target: biotin-Vpr52-96 (biotinylated C-terminal moiety of HIV-1 Vpr) (HIV-1), P12520; assay: surface plasmon resonance, Langmuir isotherm, peptide on biotinylated Vpr52-96
Sequence (P12520 52-96 limits assumed): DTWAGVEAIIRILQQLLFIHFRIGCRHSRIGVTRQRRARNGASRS
assay.endpoint: Kd (µM)

• DKRTQFWRYFAGN (modifications not checked) [ANT-2-derived peptide ANT104-116] = 35
